Where do these numbers come from? They come from PubChem BioAssay AID256.

Test system: CD2F1 mice, L1210 leukemia ip, survival T/C
ASSAY_TEXT: NCI In Vivo Anticancer Drug Screen. Data for tumor model L1210 Leukemia (intraperitoneal) in CD2F1 (CDF1) mice
SETTINGS: endpoint: mean survival time; dose: 200.0 mg/kg/injection; schedule: Q01DX001 (ip); vehicle: Klucel (hydroxypropylcellulose) (HPC); higher = longer survival
Method: The antitumor activity of compounds was measured in mice bearing transplantable tumors. Survival or tumor size were measured and the results are expressed as the measurement made in the treated group (T) divided by the measurement made in the vehicle treated control group (C). The tumor model used in this assay is L1210 Leukemia (intraperitoneal) in CD2F1 (CDF1) mice
Inconclusive results and toxic doses are left out.
MEASURED_ENDPOINT: T/C

Examples from the recorded data:
- Nc1ccc(Br)cc1-c1nc(N)c2cc(Br)ccc2n1: 103 % of control
- COCC(OC)C(OC)C(OC)C(C=O)OC (configuration not stated): 105 % of control
- C=CS(=O)(=O)CCCC: 96 % of control
- Cc1ccc(S(=O)(=O)/N=S(/C)CC/S(C)=N/S(=O)(=O)c2ccc(C)cc2)cc1 (configuration not stated): 102 % of control
- O=[N+]([O-])c1ccc(-c2cn3ccsc3n2)cc1: 90 % of control

Request: Tell me the measured T/C of Nc1cccc(OCCOc2ccccc2[N+](=O)[O-])c1 , please.
Result: 90 % of control

Request: Okay, and Nc1ccc2nsnc2c1 ?
Result: 103 % of control

###

System: CD2F1 mice, L1210 leukemia ip, survival T/C
ASSAY_TEXT: NCI In Vivo Anticancer Drug Screen. Data for tumor model L1210 Leukemia (intraperitoneal) in CD2F1 (CDF1) mice
SETTINGS: endpoint: mean survival time; dose: 100.0 mg/kg/injection; schedule: Q04DX003 (ip); vehicle: saline with Tween-80; higher = longer survival
Toxic doses and inconclusive results are not listed.
MEASURED_ENDPOINT: T/C

Examples from the recorded data:
- Nc1ccc([N+](=O)[O-])c(S(=O)(=O)O)c1: 95 % of control
- Cc1cc(=O)cc(CC(=O)C(=O)O)o1: 97 % of control
- Nc1c(Br)cc2c(c1Br)Cc1cc(Cl)ccc1-2: 105 % of control

Now let's try a different one.
Request: Tell me the measured T/C of CCCCCCCCCCCCCCCCOc1ccc(S(=O)(=O)NC2CCCCC2)cc1N , please.
Result: 104 % of control

###

Test system: CD2F1 mice, L1210 leukemia ip, survival T/C
ASSAY_TEXT: NCI In Vivo Anticancer Drug Screen. Data for tumor model L1210 Leukemia (intraperitoneal) in CD2F1 (CDF1) mice
SETTINGS: endpoint: mean survival time; dose: 100.0 mg/kg/injection; schedule: Q04DX003 (ip); vehicle: acetone; higher = longer survival
Toxic doses and inconclusive results are not listed.
The following molecules are shown together with reported T/C values.

• N#Cc1c(NC(=S)NC2OC(COCc3ccccc3)C(OCc3ccccc3)C2OCc2ccccc2)ncn1Cc1ccccc1 (stereo not given) = 91 % of control
• C#CCOC1CCCCC1O (stereo not given) = 101 % of control
• COc1ccc2c(Br)cccc2c1 = 102 % of control
• Cc1cc(C)c(C(=O)C(=S)N2CCOCC2)c(C)c1 = 98 % of control

Now let's try a different one.
Request: Tell me the measured T/C of Cc1ccc(S(=O)(=O)OC2CC3CCC2C3)cc1 (stereo not given) , please.
Result: 105 % of control
